- Tested on: CCRF-CEM leukemia
- measurement-protocol: NCI tumour cell line growth inhibition, 48 h

[
  {
    "cpd-smiles": "Cc1ccc(C(=O)NCc2ccccc2)cc1N=NN(C)C",
    "TGI": "> 100 µM"
  },
  {
    "cpd-smiles": "O=C(N/N=C/c1ccc(O)cc1O)c1cccnc1",
    "TGI": "> 100 µM"
  },
  {
    "cpd-smiles": "CCCn1cnc2c(SCc3ccc(Cl)cc3)nc(N)nc21",
    "TGI": "> 100 µM"
  }
]

---

- System: NCI-H226 lung
- measurement-protocol: NCI tumour cell line growth inhibition, 48 h
# TGI values compiled below

[
  {
    "compound": "COc1ccc(-c2noc(N)c2-c2cc(OC)c3c(c2)OCO3)cc1",
    "TGI": "> 100 µM"
  },
  {
    "compound": "CC12CCC(=O)N1c1cccnc1N2 (stereo not drawn)",
    "TGI": "> 100 µM"
  },
  {
    "compound": "C[P+](C)(C)c1ccccc1",
    "TGI": "> 100 µM"
  },
  {
    "compound": "CCOC(=O)CCC1(CCC(=O)OCC)CCCCCCCCC(CCC(=O)OCC)(CCC(=O)OCC)C(=O)C1=O",
    "TGI": "> 100 µM"
  },
  {
    "compound": "CC1COS(=O)O1 (stereo not drawn)",
    "TGI": "> 100 µM"
  },
  {
    "compound": "CC1(C)OP(=O)(O)C=C1Sc1ccc([N+](=O)[O-])cc1[N+](=O)[O-]",
    "TGI": "> 100 µM"
  },
  {
    "compound": "Cc1n[n+](Cc2ccccc2)c2sc(N)nn12",
    "TGI": "> 100 µM"
  },
  {
    "compound": "COc1ccc(C2COc3c(ccc(O)c3C)C2)cc1OC (stereo not drawn)",
    "TGI": "> 139 µM"
  },
  {
    "compound": "CN1CCN(/C(N)=C(\\C#N)C(=O)Nc2ccc(Cl)cc2)CC1",
    "TGI": "> 100 µM"
  },
  {
    "compound": "O=C(NNc1cnccn1)c1nc2cc(F)ccc2n2cccc12",
    "TGI": "> 100 µM"
  },
  {
    "compound": "CCCO[C@@H]1[C@@H](OC(C)=O)[C@@H](OC(C)=O)C(C)(C)/C=C/[C@H](C)C(=O)[C@@]2(OC(C)=O)C[C@@](C)(OC(C)=O)[C@H](OC(C)=O)[C@@H]2[C@H]2OC(=O)CC[C@@]12OC(=O)c1ccccc1",
    "TGI": "> 25 µM"
  },
  {
    "compound": "CC(=O)OCCOCNC(=S)N/N=C/c1ccc([N+](=O)[O-])s1",
    "TGI": "> 100 µM"
  },
  {
    "compound": "COc1ccc2nc(-c3ccccc3)c(=O)[nH]c2c1",
    "TGI": "> 100 µM"
  }
]

---

# key: entry, value: TGI
- Tested on: ACHN renal
- measurement-protocol: NCI tumour cell line growth inhibition, 48 h
quantity-kind: TGI

[
  {
    "compound": "Cn1cc(S(=O)(=O)N2CCC3=Cc4c(cnn4-c4ccc(F)cc4)C[C@]3(C(=O)c3cc(C(F)(F)F)ccn3)C2)cn1",
    "observed-measurement": "> 100 µM"
  },
  {
    "compound": "O=C1c2ccccc2OCC12OC21C=CC(Cl)=CC1 (stereo unspecified)",
    "observed-measurement": "> 100 µM"
  },
  {
    "compound": "C=CCCC1(C)CCCNC1=S (stereo unspecified)",
    "observed-measurement": "> 100 µM"
  },
  {
    "compound": "COc1cccc(-c2nc(-c3cnccn3)n(C/C=C/c3ccccc3)n2)c1",
    "observed-measurement": "> 10 µM"
  },
  {
    "compound": "Cc1ccc(C(=O)NCc2ccccc2)cc1N=NN(C)C",
    "observed-measurement": "> 100 µM"
  },
  {
    "compound": "O=C(N/N=C/c1ccc(O)cc1O)c1cccnc1",
    "observed-measurement": "> 100 µM"
  }
]

Values compiled from PubChem BioAssay (NCI).
